# measured_target: T1, cynomolgus monkey BCMA (cynomolgus monkey, UniProt A0A2K5UD97 1-53)
# T1 construct: Soluble analyte in SPR; construct not described; also called cyBCMA; Cyno BCMA
# T1 sequence (A0A2K5UD97 entry or part of it): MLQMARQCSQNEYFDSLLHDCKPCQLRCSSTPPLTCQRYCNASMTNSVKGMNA
# procedure_text: SPR, IgG on chip, cyBCMA analyte
Please go through the items and note down their Kd.

Some binders with recorded Kd:
C01_Rd4_6nM_C20 (antibody, V domains shown, IgG) VH: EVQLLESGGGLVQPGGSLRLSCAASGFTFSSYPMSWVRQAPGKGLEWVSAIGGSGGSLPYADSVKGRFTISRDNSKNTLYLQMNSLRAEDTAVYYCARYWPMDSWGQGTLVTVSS VL: EIVLTQSPGTLSLSPGERATLSCRASQSVSPLYLAWYQQKPGQAPRLLIYDASSRAPGIPDRFSGSGSGTDFTLTISRLEPEDFAVYYCQQYSAFPLTFGQGTKVEIK | 1.74 nM
COMBO_Rd4_6nM_C08 (antibody, V domains shown, IgG) VH: EVQLLESGGGLVQPGGSLRLSCAASGFTFSSYPMSWVRQAPGKGLEWVSAIGGSGTWTYYADSVKGRFTISRDNSKNTLYLQMNSLRAEDTAVYYCARYWPMDSWGQGTLVTVSS VL: EIVLTQSPGTLSLSPGERATLSCRASQSVSSSYLAWYQQKPGQAPRLLMYDASIRATGIPDRFSGSGSGTDFTLTISRLEPEDFAVYYCQQYQKWPLTFGQGTKVEIK | 0.14 nM
COMBO_Rd4_0.6nM_C23 (antibody, V domains shown, IgG) VH: EVQLLESGGGLVQPGGSLRLSCAASGFTFSSYPMSWVRQAPGKGLEWVSALFGSGGSTYYADSVKGRFTISRDNSKNTLYLQMNSLRAEDTAVYYCARYWPMDSWGQGTLVTVSS VL: EIVLTQSPGTLSLSPGERATLSCRPRQSVSSSYLAWYQQKPGQAPRLLMYDASIRATGIPDRFSGSGSGTDFTLTISRLEPEDFAVYYCQQYQDWPLTFGQGTKVEIK | 0.189 nM

Give Kd for each listed item.
1. C01_Rd4_0.6nM_C27 (antibody, V domains shown, IgG) VH: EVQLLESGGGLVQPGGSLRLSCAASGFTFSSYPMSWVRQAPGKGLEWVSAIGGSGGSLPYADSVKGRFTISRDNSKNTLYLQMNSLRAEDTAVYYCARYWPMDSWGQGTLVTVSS VL: EIVLTQSPGTLSLSPGERATLSCRASQSVSSTYLAWYQQKPGQAPRLLIYDASSRAPGIPDRFSGSGSGTDFTLTISRLEPEDFAVYYCQQYSRWPLTFGQGTKVEIK
2. A02_Rd4_0.6nM_C01 (antibody, V domains shown, IgG; also called P5AC1) VH: EVQLLESGGGLVQPGGSLRLSCAASGFTFSSYAMNWVRQAPGKGLEWVSAILSSGGSTYYADSVKGRFTISRDNSKNTLYLQMNSLRAEDTAVYYCARYWPMDIWGQGTLVTVSS VL: EIVLTQSPGTLSLSPGERATLSCRGGQSVSSSYLAWYQQKPGQAPRLLMYDASIRATGIPDRFSGSGSGTDFTLTISRLEPEDFAVYYCQQYQSWPLTFGQGTKVEIK

Result:
["0.852 nM", "0.655 nM"]
